System: RAW-Dual (murine macrophage reporter line)
Protocol: IRF reporter (Lucia luciferase) activity fold change vs agonist alone; higher = enhanced IRF activity
Experimental Setup: modulator concentration 10 µM; agonist: 3'3'-cGAMP 10 ug/mL
Assign True whenever IRF reporter does not fall below 1; assign False whenever it does.

* CCCC(CCC)C(N)=O | True
* COc1ccc(C=NNC(=O)CSc2nnc(-c3ccncc3)n2-c2ccccc2)cc1OC | False
* CN1C2CCCC1CC(NC(=O)c1nn(C)c3ccccc13)C2.Cl (configuration not stated) | False
* O=C(Cn1ncccc1=O)N1Cc2cnc(N3CCOCC3)nc2C1 | False
* O=C(Nc1ccc(F)c([N+](=O)[O-])c1)c1cccs1 | False
* CN(C(=O)c1cncc(F)c1)C1CN(c2ccc3nnc(C4CC4)n3n2)C1 | False
